Target: APC11/APC2 (Homo sapiens, UniProt Q9NYG5+Q9UJX6)
Sequence (Q9NYG5 whole entry): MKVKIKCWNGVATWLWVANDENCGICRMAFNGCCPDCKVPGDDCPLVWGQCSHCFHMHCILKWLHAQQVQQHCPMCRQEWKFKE
Sequence (Q9UJX6 whole entry): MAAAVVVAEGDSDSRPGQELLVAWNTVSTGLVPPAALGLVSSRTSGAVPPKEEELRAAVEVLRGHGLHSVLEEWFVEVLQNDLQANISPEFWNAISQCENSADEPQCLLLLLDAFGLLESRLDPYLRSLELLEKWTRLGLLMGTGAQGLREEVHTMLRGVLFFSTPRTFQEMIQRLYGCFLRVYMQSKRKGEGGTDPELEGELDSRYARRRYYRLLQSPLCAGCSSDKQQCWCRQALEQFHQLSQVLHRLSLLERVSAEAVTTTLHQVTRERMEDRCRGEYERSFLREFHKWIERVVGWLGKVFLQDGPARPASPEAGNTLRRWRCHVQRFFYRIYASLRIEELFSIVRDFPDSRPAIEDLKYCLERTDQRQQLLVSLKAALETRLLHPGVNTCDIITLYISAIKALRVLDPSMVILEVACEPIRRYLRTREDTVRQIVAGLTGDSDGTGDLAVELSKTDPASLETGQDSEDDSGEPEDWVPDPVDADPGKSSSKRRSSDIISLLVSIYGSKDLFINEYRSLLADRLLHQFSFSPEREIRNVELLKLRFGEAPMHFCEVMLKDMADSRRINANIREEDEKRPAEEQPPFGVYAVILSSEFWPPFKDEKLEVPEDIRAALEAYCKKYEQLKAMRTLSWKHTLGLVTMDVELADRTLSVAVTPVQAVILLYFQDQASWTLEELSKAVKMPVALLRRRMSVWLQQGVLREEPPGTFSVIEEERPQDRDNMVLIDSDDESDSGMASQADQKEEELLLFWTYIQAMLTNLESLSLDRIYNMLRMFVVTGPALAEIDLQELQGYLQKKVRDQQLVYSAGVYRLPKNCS
Assay: APC-11/APC-2 ligase assay (APC auto ubiquitination)
Conditions: APC assay
Method: For the assays described below, the TRAF6/Uev1A/UBC13 assay is the biochemical plate-based assay of TRAF6 ligase activity using Ubc13 as the E2 enzyme. […] E3 (His APC11/APC2— “APC”) auto ubiquitination was measured as described in U.S. patent application Ser. No. 09/826,312 (Publication No. U.S. 2002 0042083 A1), which is incorporated by reference in its entirety. […] Activity in the presence of the compound was determined relative to a parallel control in which only DMSO was added. […]
pIC50: −log10 of the molar value.
MEASUREMENT_KIND: pIC50

Answered cases to consult:
O=[N+]([O-])c1ccc(Oc2c(Cl)cc(S(=O)(=O)Nc3cccc4nsnc34)cc2Cl)c(Cl)c1 : 4.70 to 6.00
O=[N+]([O-])c1ccc(NS(=O)(=O)c2ccc(Cl)c3nonc23)c2ccccc12 : ≤ 4.70
O=S(=O)(Nc1cccc2ccccc12)c1c(Nc2cccc3ccccc23)cc(Cl)c2nonc12 : 4.70 to 6.00

Switching to the query record.
Please tell me: pIC50 of `O=S(=O)(Nc1ccccc1F)c1ccc(Nc2ccccc2F)c2nonc12` , system APC11/APC2 (Homo sapiens, UniProt Q9NYG5+Q9UJX6)?
4.70 to 6.00

---

Molecular target: TRAF6/Uev1A/Ubc13 (Homo sapiens, UniProt Q9Y4K3)
Sequence (Q9Y4K3 whole entry): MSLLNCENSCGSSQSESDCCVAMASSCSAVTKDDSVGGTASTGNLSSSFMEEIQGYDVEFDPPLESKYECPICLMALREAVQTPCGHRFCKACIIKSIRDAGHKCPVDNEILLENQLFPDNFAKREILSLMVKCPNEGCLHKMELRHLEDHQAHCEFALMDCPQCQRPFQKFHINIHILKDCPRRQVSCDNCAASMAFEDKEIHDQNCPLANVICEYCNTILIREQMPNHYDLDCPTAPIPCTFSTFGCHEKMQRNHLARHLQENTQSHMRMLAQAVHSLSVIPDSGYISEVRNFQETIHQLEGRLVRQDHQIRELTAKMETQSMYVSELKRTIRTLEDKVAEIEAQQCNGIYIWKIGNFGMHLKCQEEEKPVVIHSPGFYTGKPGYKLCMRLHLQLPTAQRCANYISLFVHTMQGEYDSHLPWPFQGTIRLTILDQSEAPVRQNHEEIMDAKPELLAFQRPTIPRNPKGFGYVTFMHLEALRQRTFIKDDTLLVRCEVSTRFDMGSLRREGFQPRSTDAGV
Assay: TRAF6/Uev1A/Ubc13 plate-based ubiquitin ligase assay
pIC50: −log10 of the molar value.
MEASUREMENT_KIND: pIC50

# count of solved cases: 6
O=S(=O)(Nc1ccc2[nH]ncc2c1)c1ccc(Sc2cccc3cccnc23)c2nonc12 : ≤ 4.70
O=[N+]([O-])c1c(N2CCCCC2)cc(N2CCC(O)(c3ccccc3)CC2)c2nonc12 : ≤ 4.70
O=[N+]([O-])c1ccc(N2CCN(c3cnccn3)CC2)c2nonc12 : 4.70 to 6.00
O=S(=O)(Nc1cccc2nonc12)c1ccc(Oc2ccccc2)cc1 : 4.70 to 6.00
O=[N+]([O-])c1ccc(N2CCC(S(=O)(=O)c3ccccn3)CC2)c2nonc12 : ≤ 4.70
O=S(=O)(Nc1cccc2nonc12)c1ccc(Oc2ncc(C(F)(F)F)cc2Cl)cc1 : 4.70 to 6.00

What pIC50 value was documented for this compound, `O=S(=O)(Oc1ccc(N2CCN(S(=O)(=O)c3cccc4nonc34)CC2)cc1)c1cccc2nonc12` ?
4.70 to 6.00

`COC(=O)c1ccc(NS(=O)(=O)c2ccc(Sc3cccc4cccnc34)c3nonc23)cc1` , same question.
≤ 4.70

Entry to check: `Cc1cccc(-c2cccc3nonc23)c1`
≤ 4.70

---

Molecular target: TRAF6/Uev1A/Ubc13 (Homo sapiens)
Assay: TRAF6/Uev1A/Ubc13 plate-based ubiquitin ligase assay
# IC50 listing for each entry below

O=S(=O)(Nc1cccc(F)c1)c1ccc(Nc2cccc(F)c2)c2nonc12 : ≥ 20 µM
COc1ccc(S(=O)(=O)N2CCN(c3ncc(C(F)(F)F)cc3Cl)CC2)c2nonc12 : 1 to 20 µM

Record request: IC50 value, item `Cc1ccc(-c2cc3nsnc3cc2F)cc1C`
≥ 20 µM

Okay, and `COC(=O)c1ccc(NS(=O)(=O)c2c(Sc3cccc4cccnc34)ccc3nonc23)cc1` ?
1 to 20 µM

Here is the next compound: `COC(=O)c1ccc(NS(=O)(=O)c2ccc(Sc3ccncc3)c3nonc23)cc1`
≥ 20 µM
